# Test system: BDF1 mice, P388 leukemia ip, median survival T/C
# assay comment: NCI In Vivo Anticancer Drug Screen. Data for tumor model P388 Leukemia (intraperitoneal) in B6D2F1 (BDF1) mice
# condition set: endpoint: median survival time; dose: 100.0 mg/kg/injection; schedule: Q04DX003 (ip); vehicle: saline with Tween-80
Inconclusive results and toxic doses are left out. The calls were made as follows: active = survival T/C of 150% or more; inactive = T/C below 125% in these data.
Your answer must be one of the following: YES = active, NO = inactive

Query: Could you kindly confirm the outcome this assay logged for COc1ccc(CNCCNCCNCc2ccc(OC)cc2)cc1 ?
Reply: NO

Query: Could you kindly confirm the outcome this assay logged for Clc1nc2nc(Cl)n(Cl)c2nc1Cl ?
Reply: NO

Query: Could you kindly confirm the outcome this assay logged for Cc1ccc(NC(=O)c2ccccc2Cl)cc1C ?
Reply: NO

Query: Could you kindly confirm the outcome this assay logged for CC(=O)OC1CC2CCC1(C)C2(C)C (stereo not drawn) ?
Reply: NO

Query: Could you kindly confirm the outcome this assay logged for CC(=O)NS(=O)(=O)c1ccc(NC(=O)c2ccccc2C(=O)O)cc1 ?
Reply: NO

Query: Could you kindly confirm the outcome this assay logged for c1ccc2c(c1)ccc1[nH]c3ccccc3c12 ?
Reply: NO

Query: Could you kindly confirm the outcome this assay logged for O=C(COc1ccc([N+](=O)[O-])cc1)Nc1cccnc1 ?
Reply: NO

Query: Could you kindly confirm the outcome this assay logged for Oc1cc(OCCCc2ccc(F)cc2)cc2ccc3ccccc3c12 ?
Reply: NO

Query: Could you kindly confirm the outcome this assay logged for Cc1ccccc1NC(=O)c1ccc([N+](=O)[O-])cc1 ?
Reply: NO

Query: Could you kindly confirm the outcome this assay logged for O=C1C(N2CCOCC2)=Cc2cccc3cccc1c23 ?
Reply: NO

Query: Could you kindly confirm the outcome this assay logged for O=C1NC2NC(=O)NC2N1 (stereo not drawn) ?
Reply: NO

Query: Could you kindly confirm the outcome this assay logged for NC(CSC(c1ccccc1)(c1ccccc1)c1ccc(Br)cc1)C(=O)O (stereo not drawn) ?
Reply: YES

Query: Could you kindly confirm the outcome this assay logged for Cc1cc2ccccc2oc1=O ?
Reply: NO

###

# System: BDF1 mice, P388 leukemia ip, median survival T/C
# assay comment: NCI In Vivo Anticancer Drug Screen. Data for tumor model P388 Leukemia (intraperitoneal) in B6D2F1 (BDF1) mice
# condition set: endpoint: median survival time; dose: 200.0 mg/kg/injection; schedule: Q01DX009 (ip); vehicle: saline with Tween-80; higher = longer survival
Toxic doses and inconclusive results are not listed.
measured quantity: T/C

Query: Return T/C (reported value) for this compound: O=C(O)c1c[nH]n2c(=S)ncnc12
Reply: 100 % of control

Query: Return T/C (reported value) for this compound: NCCNc1c[nH]c(=O)[nH]c1=O
Reply: 103 % of control

Query: Return T/C (reported value) for this compound: CCCCCCCCC(CO)CO
Reply: 95 % of control

Query: Return T/C (reported value) for this compound: COC(=O)c1ccc(COc2ccc([N+](=O)[O-])cc2Cl)cc1
Reply: 115 % of control

Query: Return T/C (reported value) for this compound: O=C(c1ccccc1)C12CC3CC(CC(C3)C1)C2
Reply: 107 % of control

Query: Return T/C (reported value) for this compound: COCCCn1c(C(Cl)(Cl)Cl)nn2c(=O)c3ccccc3nc2c1=O
Reply: 90 % of control

Query: Return T/C (reported value) for this compound: CC(C)C(O)(C(=O)NN)C(=O)NN
Reply: 109 % of control

###

# Tested on: BDF1 mice, P388 leukemia ip, median survival T/C
# assay comment: NCI In Vivo Anticancer Drug Screen. Data for tumor model P388 Leukemia (intraperitoneal) in B6D2F1 (BDF1) mice
# condition set: endpoint: median survival time; dose: 400.0 mg/kg/injection; schedule: Q01DX009 (ip); vehicle: saline with Tween-80; higher = longer survival
Inconclusive results and toxic doses are left out.
Please go through the items and note down their T/C.

Query: Return T/C (reported value) for this compound: COc1ccc(CCNC(=O)Cc2ccccc2)cc1OC
Reply: 100 % of control

Query: Return T/C (reported value) for this compound: CCN/C(C)=C\C(=O)OCC
Reply: 111 % of control

Query: Return T/C (reported value) for this compound: COc1ccc(C=NCCN=Cc2ccc(OC)c(OC)c2)cc1OC
Reply: 100 % of control

Query: Return T/C (reported value) for this compound: O=C(C(=O)c1ccc(Br)cc1)c1ccc(Br)cc1
Reply: 98 % of control

Query: Return T/C (reported value) for this compound: C=CN1C(=O)NC(C)(CC(C)C)C1=O (stereo not given)
Reply: 104 % of control

Query: Return T/C (reported value) for this compound: COc1ccccc1N1C(=O)CC(Sc2ccccc2N)C1=O (stereo not given)
Reply: 91 % of control

Query: Return T/C (reported value) for this compound: CC(C)C(=O)c1ccc([N+](=O)[O-])o1
Reply: 107 % of control

Query: Return T/C (reported value) for this compound: Cc1ccc2c(c1)nc1c3ccccc3nc(-c3ccccc3N)n21
Reply: 108 % of control

Query: Return T/C (reported value) for this compound: Cc1ccc(CCCCCCCCCCCC(=O)O)cc1
Reply: 107 % of control

Query: Return T/C (reported value) for this compound: COC(=O)C1CC2C(CCC3C(C)(C(=O)OC)CCCC23C)C(=O)C1(O)C(C)C (stereo not given)
Reply: 90 % of control

###

# Tested on: BDF1 mice, P388 leukemia ip, median survival T/C
# assay comment: NCI In Vivo Anticancer Drug Screen. Data for tumor model P388 Leukemia (intraperitoneal) in B6D2F1 (BDF1) mice
# condition set: endpoint: median survival time; dose: 50.0 mg/kg/injection; schedule: Q01DX009 (ip); vehicle: Klucel (hydroxypropylcellulose) (HPC)
Inconclusive results and toxic doses are left out. The calls were made as follows: active = survival T/C of 150% or more; inactive = T/C below 125% in these data.
Your answer must be one of the following: 1 (yes) for active, 0 (no) for inactive

Query: Could you kindly confirm the outcome this assay logged for Cc1c(C)c(CC#N)c(C)c(C)c1CC#N ?
Reply: 0 (no)

Query: Could you kindly confirm the outcome this assay logged for C#CCOC(=O)NCCC ?
Reply: 0 (no)

Query: Could you kindly confirm the outcome this assay logged for CN(C)C=O.CN(C)C=O.[Cl][Sn]([Cl])([Cl])[Cl] ?
Reply: 0 (no)

Query: Could you kindly confirm the outcome this assay logged for C1CC[N-]CC1.C1CC[N-]CC1.[I][Pt+2][I] ?
Reply: 0 (no)

Query: Could you kindly confirm the outcome this assay logged for CNC(=O)OCc1c(COC(=O)NC)c(-c2ccc(Cl)cc2)n2c1CCC2 ?
Reply: 0 (no)

Query: Could you kindly confirm the outcome this assay logged for O=[N+]([O-])c1cccnc1Cl ?
Reply: 0 (no)

Query: Could you kindly confirm the outcome this assay logged for O=S1(=O)CC(Cl)(Br)C1 ?
Reply: 0 (no)

Query: Could you kindly confirm the outcome this assay logged for O=C1C(c2ccccc2)=S=C2Sc3ccccc3N12 ?
Reply: 0 (no)

Query: Could you kindly confirm the outcome this assay logged for O=C(O)/C=C/C(=O)Nc1ccc(Cl)c(Cl)c1 ?
Reply: 0 (no)

Query: Could you kindly confirm the outcome this assay logged for O=C(CS)OCCOC(=O)CS ?
Reply: 0 (no)

Query: Could you kindly confirm the outcome this assay logged for O=NN(CCCl)C(=O)Nc1ccc(NC(=O)N(CCCl)N=O)cc1 ?
Reply: 1 (yes)

Query: Could you kindly confirm the outcome this assay logged for O=C(CCl)N1CCc2ccccc21 ?
Reply: 0 (no)

Query: Could you kindly confirm the outcome this assay logged for O=S1(=O)CCN(C2CCCCCC2)CC1 ?
Reply: 0 (no)

Query: Could you kindly confirm the outcome this assay logged for CC(=O)NNC(=O)c1ccccc1 ?
Reply: 0 (no)

Query: Could you kindly confirm the outcome this assay logged for Clc1cc(Cl)c2c(c1)COCO2 ?
Reply: 0 (no)

Query: Could you kindly confirm the outcome this assay logged for [O-][n+]1onc2ccc(Cl)cc21 ?
Reply: 0 (no)

Query: Could you kindly confirm the outcome this assay logged for Cc1nc2ccccc2c(Cl)c1C ?
Reply: 0 (no)

Query: Could you kindly confirm the outcome this assay logged for C=C(C)C1CCC2=CC(CC3(C)OC3C3=CC(C(=O)OC)=C(C1)O3)OC2=O (centres undefined) ?
Reply: 0 (no)

Query: Could you kindly confirm the outcome this assay logged for O=C1NN(CCO)C(=S)Nc2ccccc21 ?
Reply: 0 (no)

Query: Could you kindly confirm the outcome this assay logged for O=C1c2ccccc2S(=O)(=O)N1CCCBr ?
Reply: 0 (no)

Query: Could you kindly confirm the outcome this assay logged for CC1=NNC(=O)C1CCO (centres undefined) ?
Reply: 0 (no)

Query: Could you kindly confirm the outcome this assay logged for CC1=NN(c2ccccc2)C(=O)/C1=C\c1ccc(N(CCC#N)CCC#N)cc1 ?
Reply: 0 (no)

Query: Could you kindly confirm the outcome this assay logged for COc1cc2c(cc1OC)-c1cc3cc(OC)c(OC)cc3c(C)[n+]1CC2 (tested in a mixture with another compound) ?
Reply: 0 (no)

Query: Could you kindly confirm the outcome this assay logged for CCN(CC)CCCC#CCN1CCCCC1 ?
Reply: 0 (no)

Where do these numbers come from? They come from PubChem BioAssay AID328.
